Hello, the source for this data is paper PMC5540273, in case you need it.

Tested on: KIT
condition_set: concentration: 1 μM, replicates: in singlicate; n = 1;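 further: KINOMEscan kinase panel screen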
recorded_metric: %Inh (%)

>>> df
                                   molecule  experimental_system  recorded_metric  units  reported_value
0  COc1cccc(-c2ccc3c(NC(=O)C4CC4)n[nH]c3n2)c1 [SB-710903]                  KIT             %Inh      %              15
1  CC(=O)N1CCN(c2ccc(Nc3nccc(-c4sc(C(C)C)nc4-c4cccc(NS(=O)(=O)c5cccc(Cl)c5)c4)n3)cn2)CC1 [GSK1660437]                  KIT             %Inh      %            96.1
2  Cl.NC(=O)c1cccc(Nc2nccc(Nc3ccc(Oc4c(Cl)cccc4Cl)c(Cl)c3)n2)c1 [GW659009]                  KIT             %Inh      %              17
3  COc1cccc(C(=O)Nc2cccc(Oc3ccc4nc(NC(=O)C5CC5)cn4n3)c2)c1                  KIT             %Inh      %             100

---

Tested on: SRMS
condition_set: concentration: 1 μM, replicates: in singlicate; n = 1
recorded_metric: %Inh (%)

>>> print(df.to_string())
                                   compound  recorded_metric  reported_value
0  C[C@@H](Oc1cc(-n2cnc3cc(-c4ccnc(NCCS(C)(=O)=O)c4)ccc32)sc1C(N)=O)c1ccccc1Cl             %Inh               0
1  COc1cc(Nc2nccc(-c3c(-c4cccc(NC(=O)c5c(F)cccc5F)c4)nn4ccccc34)n2)cc(OC)c1OC             %Inh               0
2  Cn1cc(-c2[nH]c3cc(NC(=O)[C@H](N)C4CCCCC4)cc4c3c2C=NNC4=O)cn1             %Inh              75
3  Cl.c1ccc(-c2ccc3c(Nc4ccc5[nH]ccc5c4)ccnc3c2)nc1             %Inh               0
4  COc1cc(Nc2nccc(-c3c(-c4cccc(NC(=O)c5c(F)cccc5F)c4)nn4ncccc34)n2)cc(OC)c1OC             %Inh            98.5
5      CC(C)(C)c1ccc2nccc(Nc3cccc(O)c3)c2c1             %Inh               0
6  CCn1c(-c2nonc2N)nc2c(C#CC(C)(C)O)ncc(OCCCCN)c21.O=C(O)C(F)(F)F.O=C(O)C(F)(F)F             %Inh               0
7  COc1cccc(C2=C(Nc3ccc(Cl)c(C(=O)O)c3)C(=O)NC2=O)c1             %Inh             100
8  NCCCC(NC(=O)c1cc(Br)c(-c2ccnc3[nH]ccc23)s1)c1ccccc1.O=C(O)C(F)(F)F.O=C(O)C(F)(F)F (stereo not shown)             %Inh               0
9  COC(=O)Nc1nc2ccc(Oc3ccc(NC(=O)Nc4cc(C(F)(F)F)ccc4F)cc3)cc2n1C.Cl             %Inh               0
